// data source = PubChem BioAssay AID1963852

# Test system: 282377-053-R-J1-PDC complex spheroid viability
# Experiment summary: Anticancer human tumor 282377-053-R-J1-PDC patient-derived colon adenocarcinoma cell line growth inhibition [POLQ]
# Applied conditions: second compound 0.0316 µM; first compound 3.16 µM; stronger effect = lower value
# Description: Multicellular complex tumor spheroid response to Polymerase (POL) inhibitors (novobiocin, ART-558, RP6685) in combination with a variety of drugs and investigational agents in selected tumor cell lines The POL inhibitors (novobiocin, ART-558, and RP6685) were evaluated both individually and in combination with standard of care and investigational anticancer small molecules within a complex spheroid model of solid tumors. . […]
Parameter measured: viability, T/C (%)

Compound | Observed measurement
CC(C)n1c(=O)n(C)c2cnc3cc(F)c(-c4ccc(OCCCN5CCCCC5)nc4)cc3c21 + Nc1ccc(C#CCN(C(=O)Cc2ncc(C(F)(F)F)cc2C(F)(F)F)c2ccc(F)cc2)nn1 | 110
CNCc1ccc(-c2[nH]c3cc(F)cc4c3c2CCNC4=O)cc1 + COC1C(OC(N)=O)C(O)C(Oc2ccc3c(O)c(NC(=O)c4ccc(O)c(CC=C(C)C)c4)c(=O)oc3c2C)OC1(C)C | 130
COc1cc2cc(C(=O)CCC(=O)O)sc2cc1OC + COC1C(OC(N)=O)C(O)C(Oc2ccc3c(O)c(NC(=O)c4ccc(O)c(CC=C(C)C)c4)c(=O)oc3c2C)OC1(C)C | 113
CC1COCCN1c1cc(-c2ccnn2C)c2ccnc(-c3ccn[nH]3)c2n1 (stereo not given) + Cc1cccc(N(C)C(=O)C2C(O)CCN2c2nc(C)cc(C(F)(F)F)c2C#N)c1 | 26.3
C#Cc1c(F)ccc2cc(O)cc(-c3ncc4c(N5CC6CCC(C5)N6)nc(OCC56CCCN5CC(F)C6)nc4c3F)c12 (stereo not given) + COC1C(OC(N)=O)C(O)C(Oc2ccc3c(O)c(NC(=O)c4ccc(O)c(CC=C(C)C)c4)c(=O)oc3c2C)OC1(C)C | 88.8

###

# Tested on: 282377-053-R-J1-PDC complex spheroid viability
# Experiment summary: Anticancer human tumor 282377-053-R-J1-PDC cell line growth inhibition [POLQ];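 note: spheroids exposed to compounds for seven days; 100% = DMSO vehicle control viability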
# Applied conditions: second compound 1 µM; first compound 1 µM; stronger effect = lower value
Listing of recorded viability, T/C by entry.
Parameter measured: viability, T/C (%)

Compound | System | Parameter measured | Observed measurement
C#Cc1c(F)ccc2cc(O)cc(-c3ncc4c(N5CC6CCC(C5)N6)nc(OCC56CCCN5CC(F)C6)nc4c3F)c12 (stereo not given) + Cc1cccc(N(C)C(=O)C2C(O)CCN2c2nc(C)cc(C(F)(F)F)c2C#N)c1 | 282377-053-R-J1-PDC complex spheroid viability | viability, T/C | 81.3
CC(C)n1c(=O)n(C)c2cnc3cc(F)c(-c4ccc(OCCCN5CCCCC5)nc4)cc3c21 + Cc1cccc(N(C)C(=O)C2C(O)CCN2c2nc(C)cc(C(F)(F)F)c2C#N)c1 | 282377-053-R-J1-PDC complex spheroid viability | viability, T/C | 105
CC(C)n1c(=O)n(C)c2cnc3cc(F)c(-c4ccc(OCCCN5CCCCC5)nc4)cc3c21 + Nc1ccc(C#CCN(C(=O)Cc2ncc(C(F)(F)F)cc2C(F)(F)F)c2ccc(F)cc2)nn1 | 282377-053-R-J1-PDC complex spheroid viability | viability, T/C | 112
COc1ccc([C@@H](O)c2cc(-c3ncnc4cc(N5CCOCC5)ccc34)c(F)cc2Cl)nn1 + Nc1ccc(C#CCN(C(=O)Cc2ncc(C(F)(F)F)cc2C(F)(F)F)c2ccc(F)cc2)nn1 | 282377-053-R-J1-PDC complex spheroid viability | viability, T/C | 91.9
COc1cccc2c1C(=O)c1c(O)c3c(c(O)c1C2=O)CC(O)(C(=O)CO)CC3OC1CC(N)C(O)C(C)O1 (stereo not given) + COC1C(OC(N)=O)C(O)C(Oc2ccc3c(O)c(NC(=O)c4ccc(O)c(CC=C(C)C)c4)c(=O)oc3c2C)OC1(C)C | 282377-053-R-J1-PDC complex spheroid viability | viability, T/C | 14.3
CC1COCCN1c1cc(C2(O)CC3CCC(C2)O3)c2cnn(-c3ccn[nH]3)c2n1 (stereo not given) + COC1C(OC(N)=O)C(O)C(Oc2ccc3c(O)c(NC(=O)c4ccc(O)c(CC=C(C)C)c4)c(=O)oc3c2C)OC1(C)C | 282377-053-R-J1-PDC complex spheroid viability | viability, T/C | 36.3
COc1cccc2c1C(=O)c1c(O)c3c(c(O)c1C2=O)CC(O)(C(=O)CO)CC3OC1CC(N)C(O)C(C)O1 (stereo not given) + Nc1ccc(C#CCN(C(=O)Cc2ncc(C(F)(F)F)cc2C(F)(F)F)c2ccc(F)cc2)nn1 | 282377-053-R-J1-PDC complex spheroid viability | viability, T/C | 100
O=c1[nH]cc(F)c(=O)[nH]1 + COC1C(OC(N)=O)C(O)C(Oc2ccc3c(O)c(NC(=O)c4ccc(O)c(CC=C(C)C)c4)c(=O)oc3c2C)OC1(C)C | 282377-053-R-J1-PDC complex spheroid viability | viability, T/C | 86.4
C=CC(=O)N1CCN(c2nc(=O)n(-c3c(C)ccnc3C(C)C)c3nc(-c4c(O)cccc4F)c(F)cc23)C(C)C1 (stereo not given) + Nc1ccc(C#CCN(C(=O)Cc2ncc(C(F)(F)F)cc2C(F)(F)F)c2ccc(F)cc2)nn1 | 282377-053-R-J1-PDC complex spheroid viability | viability, T/C | 91.3
CCc1cc2c(N3CCc4c(cc(Cn5ccnc5)cc4-c4cn(C)nc4C(F)(F)F)C3=O)cc(C)nc2c(OC)n1 + COC1C(OC(N)=O)C(O)C(Oc2ccc3c(O)c(NC(=O)c4ccc(O)c(CC=C(C)C)c4)c(=O)oc3c2C)OC1(C)C | 282377-053-R-J1-PDC complex spheroid viability | viability, T/C | 158

###

# Tested on: 282377-053-R-J1-PDC complex spheroid viability
# Experiment summary: Anticancer human tumor 282377-053-R-J1-PDC cell line growth inhibition [POLQ];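 note: spheroids exposed to compounds for seven days; 100% = DMSO vehicle control viability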
# Applied conditions: second compound 3.16 µM; first compound 0.316 µM; stronger effect = lower value
Threshold 40%: viability, T/C strictly smaller gives True, otherwise False.

Molecule | Qualitative label
COc1cccc2c1C(=O)c1c(O)c3c(c(O)c1C2=O)CC(O)(C(=O)CO)CC3OC1CC(N)C(O)C(C)O1 (stereo not given) + Cc1cccc(N(C)C(=O)C2C(O)CCN2c2nc(C)cc(C(F)(F)F)c2C#N)c1 | False
COc1cccc2c1C(=O)c1c(O)c3c(c(O)c1C2=O)CC(O)(C(=O)CO)CC3OC1CC(N)C(O)C(C)O1 (stereo not given) + COC1C(OC(N)=O)C(O)C(Oc2ccc3c(O)c(NC(=O)c4ccc(O)c(CC=C(C)C)c4)c(=O)oc3c2C)OC1(C)C | False
CCc1c2c(nc3ccc(O)cc13)-c1cc3c(c(=O)n1C2)COC(=O)[C@]3(O)CC + Nc1ccc(C#CCN(C(=O)Cc2ncc(C(F)(F)F)cc2C(F)(F)F)c2ccc(F)cc2)nn1 | False
CNCc1ccc(-c2[nH]c3cc(F)cc4c3c2CCNC4=O)cc1 + COC1C(OC(N)=O)C(O)C(Oc2ccc3c(O)c(NC(=O)c4ccc(O)c(CC=C(C)C)c4)c(=O)oc3c2C)OC1(C)C | False
CCc1c2c(nc3ccc(O)cc13)-c1cc3c(c(=O)n1C2)COC(=O)[C@]3(O)CC + COC1C(OC(N)=O)C(O)C(Oc2ccc3c(O)c(NC(=O)c4ccc(O)c(CC=C(C)C)c4)c(=O)oc3c2C)OC1(C)C | True

###

Listing of recorded viability, T/C by entry.
# Tested on: 282377-053-R-J1-PDC complex spheroid viability
# Experiment summary: Anticancer human tumor 282377-053-R-J1-PDC cell line growth inhibition [POLQ];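 note: spheroids exposed to compounds for seven days; 100% = DMSO vehicle control viability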
# Applied conditions: second compound 0.316 µM; first compound 0.0316 µM; stronger effect = lower value

Compound | viability, T/C (%)
CCc1c2c(nc3ccc(O)cc13)-c1cc3c(c(=O)n1C2)COC(=O)[C@]3(O)CC + Nc1ccc(C#CCN(C(=O)Cc2ncc(C(F)(F)F)cc2C(F)(F)F)c2ccc(F)cc2)nn1 | 75.4
O=C(Nc1ccc(O)c(NS(=O)(=O)c2ccc(F)cc2)c1)c1ccc(-c2ccccc2)cc1 + Nc1ccc(C#CCN(C(=O)Cc2ncc(C(F)(F)F)cc2C(F)(F)F)c2ccc(F)cc2)nn1 | 96.9
Cn1ncnc1[C@H]1c2n[nH]c(=O)c3cc(F)cc(c23)N[C@@H]1c1ccc(F)cc1 + COC1C(OC(N)=O)C(O)C(Oc2ccc3c(O)c(NC(=O)c4ccc(O)c(CC=C(C)C)c4)c(=O)oc3c2C)OC1(C)C | 102
CCc1c2c(nc3ccc(O)cc13)-c1cc3c(c(=O)n1C2)COC(=O)[C@]3(O)CC + COC1C(OC(N)=O)C(O)C(Oc2ccc3c(O)c(NC(=O)c4ccc(O)c(CC=C(C)C)c4)c(=O)oc3c2C)OC1(C)C | 60.7
COc1cc2cc(C(=O)CCC(=O)O)sc2cc1OC + Cc1cccc(N(C)C(=O)C2C(O)CCN2c2nc(C)cc(C(F)(F)F)c2C#N)c1 | 119
